Target: iAChSnFR0.4
Assay: fluorescence titration of purified sensor
Conditions: read-out: apparent Kd; 200 nM purified sensor
pKd: −log10 of the molar value.

>  <compound.structure>
CC(=O)OCC[N+](C)(C)C

>  <pKd>
3.66

$$$$
